# assayed_target: Insulin-degrading enzyme (Homo sapiens) (UniProt P14735)
# Sequence (P14735 whole entry, looked up): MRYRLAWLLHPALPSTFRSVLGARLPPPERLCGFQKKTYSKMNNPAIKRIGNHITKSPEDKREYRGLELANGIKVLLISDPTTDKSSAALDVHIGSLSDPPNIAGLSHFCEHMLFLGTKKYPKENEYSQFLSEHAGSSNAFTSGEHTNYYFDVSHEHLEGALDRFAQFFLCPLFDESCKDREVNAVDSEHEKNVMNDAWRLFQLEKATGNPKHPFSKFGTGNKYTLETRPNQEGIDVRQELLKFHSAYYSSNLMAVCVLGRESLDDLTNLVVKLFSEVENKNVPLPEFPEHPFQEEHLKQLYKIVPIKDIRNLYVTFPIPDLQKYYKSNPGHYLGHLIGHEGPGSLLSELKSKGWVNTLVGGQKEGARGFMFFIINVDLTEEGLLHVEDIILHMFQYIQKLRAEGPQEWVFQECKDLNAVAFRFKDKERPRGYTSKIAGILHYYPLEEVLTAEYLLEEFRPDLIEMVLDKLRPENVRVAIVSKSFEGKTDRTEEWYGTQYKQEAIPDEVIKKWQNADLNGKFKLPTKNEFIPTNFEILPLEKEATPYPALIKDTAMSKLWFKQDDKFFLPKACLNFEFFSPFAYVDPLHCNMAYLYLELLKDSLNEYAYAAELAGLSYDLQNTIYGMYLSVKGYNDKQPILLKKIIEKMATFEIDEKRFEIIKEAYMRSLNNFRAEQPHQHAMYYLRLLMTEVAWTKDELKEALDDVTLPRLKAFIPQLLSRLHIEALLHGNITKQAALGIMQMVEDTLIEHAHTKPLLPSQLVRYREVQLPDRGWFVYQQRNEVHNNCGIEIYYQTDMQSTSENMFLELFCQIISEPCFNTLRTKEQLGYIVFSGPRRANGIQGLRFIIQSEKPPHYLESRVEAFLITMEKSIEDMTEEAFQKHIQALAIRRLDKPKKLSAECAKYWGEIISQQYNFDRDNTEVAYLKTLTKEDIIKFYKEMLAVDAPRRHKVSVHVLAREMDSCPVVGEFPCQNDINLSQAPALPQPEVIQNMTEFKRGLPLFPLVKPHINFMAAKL
# assay_comment: inhibition of recombinant WT IDE Abeta cleavage – biochemical, fluorescence polarization, FAbetaB substrate, round 2, counter-screen for IDE inhibitor project, late-stage follow-up (AID 624353)
Calls of active or inactive are those of the source.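 How the source made its calls: active means insulin-degrading enzyme inhibitors with IC50 at or below 10 µM; inactive means the rest.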
measured_property: IC50

Here's what some known entries look like.
{"compound": "COc1ccc(C(=O)N2CCN(C(=O)COc3ccc(Cl)cc3)CC2)cc1OC", "IC50": "> 33 µM (inactive)"}
{"compound": "O=C(c1ccc(OCC2CCCO2)cc1)N1CCN(C(=O)C2COc3ccccc3O2)CC1 (stereo not drawn)", "IC50": "> 33 µM (inactive)"}

Consider now this further compound.
# IC50 (compound: O=C(c1ccc(Oc2ccccc2)cc1)N1CCN(C(=O)C2COc3ccccc3O2)CC1 (stereo not drawn) ) is > 33 µM (inactive)

====

# assayed_target: Insulin-degrading enzyme (Homo sapiens)
# assay_comment: inhibition of recombinant WT IDE Abeta cleavage – biochemical, fluorescence polarization, FAbetaB substrate, round 2, counter-screen for IDE inhibitor project, late-stage follow-up (AID 624353)
Active and inactive are the calls of the source.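 How the source made its calls: active means insulin-degrading enzyme inhibitors with IC50 at or below 10 µM; inactive means the rest.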
Outcome field: choose from True (active), False (inactive)

A selection of reference data follows.
{"compound": "O=C(c1ccc2nc(C(F)(F)F)[nH]c2c1)N1CCN(C(=O)C2COc3ccccc3O2)CC1 (stereo unspecified)", "answer_label": "True"}
{"compound": "COc1ccc(C(=O)N2CCN(C(=O)C(c3ccccc3)c3ccccc3)CC2)cc1OC", "answer_label": "False"}
{"compound": "COc1ccc(OCC(=O)N2CCN(C(=O)c3ccc(OC)c(OC)c3)CC2)cc1", "answer_label": "False"}

Per the assay record, what outcome was assigned to Cc1nc(COc2ccc(C(=O)N3CCN(C(=O)C4COc5ccccc5O4)CC3)cc2)cs1 (stereo unspecified) ?
False

Per the assay record, what outcome was assigned to `Clc1ccc(COCc2nnc(SCc3nc4ccccc4[nH]3)n2Cc2ccco2)cc1` ?
False

Per the assay record, what outcome was assigned to CC(=O)Nc1ccccc1C(=O)N1CCN(C(=O)C2COc3ccccc3O2)CC1 (stereo unspecified) ?
True

meta.source: PubChem BioAssay AID624353
